- Target or system: Protein cereblon/Cyclin-dependent kinase 2 (Homo sapiens, UniProt P24941+Q96SW2)
- Assay info: Protac activity at CRBN/CDK2 in human HL-60 cells assessed as induction of CDK2 degradation by Western blot analysis relative to control
- Format: cell-based
Result type: Emax (%)

1. O=C1CCC(N2C(=O)c3ccc(N4CC(CN5CCN(Cc6ccc(NC(=O)c7n[nH]cc7Nc7ncnc8[nH]ccc78)cc6)CC5)C4)cc3C2=O)C(=O)N1 (stereo unspecified)    58.8
2. O=C1CCC(N2C(=O)c3ccc(N4CC(CN5CCC(NC(=O)c6n[nH]cc6NC(=O)c6c(Cl)cccc6Cl)CC5)C4)cc3C2=O)C(=O)N1 (stereo unspecified)    63.2
3. O=C1CCC(N2C(=O)c3ccc(N4CC(CN5CCC(CN6CCC(NC(=O)c7n[nH]cc7NC(=O)c7c(Cl)cccc7Cl)CC6)CC5)C4)cc3C2=O)C(=O)N1 (stereo unspecified)    9.07
4. O=C1CCC(N2C(=O)c3ccc(N4CCC(CN5CCN(Cc6ccc(NC(=O)c7n[nH]cc7Nc7ncnc8[nH]ccc78)cc6)CC5)C4)cc3C2=O)C(=O)N1 (stereo unspecified)    76.1
5. O=C1CCC(N2C(=O)c3ccc(N4CCC(N5CCC(NC(=O)c6n[nH]cc6NC(=O)c6c(Cl)cccc6Cl)CC5)CC4)cc3C2=O)C(=O)N1 (stereo unspecified)    79.2
6. O=C1CCC(N2C(=O)c3ccc(N4CCC(CN5CCC(N6CCC(NC(=O)c7n[nH]cc7NC(=O)c7c(Cl)cccc7Cl)CC6)CC5)C4)cc3C2=O)C(=O)N1 (stereo unspecified)    28.9

###

- Target or system: Protein cereblon/Cyclin-dependent kinase 2 (Homo sapiens, UniProt P24941+Q96SW2)
- Assay info: Protac activity at CRBN/CDK2 in human HL-60 cells assessed as induction of CDK2 degradation by Western blot analysis
- Assay type: cell-based
Item-by-item account of DC50
Result type: DC50 (µM)

1. O=C1CCC(N2C(=O)c3ccc(N4CCC(CCN5CCC(NC(=O)c6n[nH]cc6NC(=O)c6c(Cl)cccc6Cl)CC5)CC4)cc3C2=O)C(=O)N1 (stereo unspecified)    0.0265
2. O=C1CCC(N2C(=O)c3ccc(N4CCC(N5CCC(NC(=O)c6n[nH]cc6NC(=O)c6c(Cl)cccc6Cl)CC5)CC4)cc3C2=O)C(=O)N1 (stereo unspecified)    0.0028
3. O=C1CCC(N2C(=O)c3ccc(N4CC(CN5CCC(NC(=O)c6n[nH]cc6NC(=O)c6c(Cl)cccc6Cl)CC5)C4)cc3C2=O)C(=O)N1 (stereo unspecified)    0.013
4. O=C1CCC(N2C(=O)c3ccc(N4CCC(C(=O)N5CCC(NC(=O)c6n[nH]cc6NC(=O)c6c(Cl)cccc6Cl)CC5)CC4)cc3C2=O)C(=O)N1 (stereo unspecified)    0.0933

###

- Target or system: Protein cereblon/Cyclin-dependent kinase 2 (Homo sapiens, UniProt P24941+Q96SW2)
- Assay info: Protac activity at CRBN/CDK2 in human HL-60 cells assessed as induction of CDK2 degradation by Western blot analysis
- Assay type: cell-based
Result type: DC50

1) O=C1CCC(N2C(=O)c3ccc(N4CC(CN5CCC(N6CCC(NC(=O)c7n[nH]cc7NC(=O)c7c(Cl)cccc7Cl)CC6)CC5)C4)cc3C2=O)C(=O)N1 (stereo not drawn)    > 100 nM
2) O=C1CCC(N2C(=O)c3ccc(N4CC(CN5CCN(Cc6ccc(NC(=O)c7n[nH]cc7Nc7ncnc8[nH]ccc78)cc6)CC5)C4)cc3C2=O)C(=O)N1 (stereo not drawn)    1.23 nM
3) O=C1CCC(N2C(=O)c3ccc(N4CCC(C(=O)N5CCN(Cc6ccc(NC(=O)c7n[nH]cc7Nc7ncnc8[nH]ccc78)cc6)CC5)CC4)cc3C2=O)C(=O)N1 (stereo not drawn)    > 100 nM
